System: U2OS
Procedure Details: Multiplex assay against U2OS
Format: toxicity, cell-based
Run Parameters: human, 48 h, 10 µM, compound concentration 10 uM, replicate 1
Parameter: Population Apoptotic (%)
Respond numerically; units are % and should not be typed.

// known answers, use as guide
OC1(c2ccc(Cl)cc2)CCN(Cc2c[nH]c3ccccc23)CC1 : 79
C[C@@H](NCCCc1cccc(C(F)(F)F)c1)c1cccc2ccccc12.Cl [CINACALCET HYDROCHLORIDE] : 70
CN1CCN(CCOc2cc(OC3CCOCC3)c3c(Nc4c(Cl)ccc5c4OCO5)ncnc3c2)CC1 [SARACATINIB] : 70

Quickly give me recorded Population Apoptotic (%) for Cc1nc(-c2ccc(-c3ccc(C(=O)N4CCc5cc6c(cc54)C4(CCN(C)CC4)CO6)cc3)c(C)c2)no1 [SB-224289]
81

Quickly give me recorded Population Apoptotic (%) for CNc1nc(NCc2ccc(NS(C)(=O)=O)cc2Cl)cc(-c2ccccn2)n1
64

Data origin, for the record: ChEMBL document CHEMBL4689842
